test: Nephrotoxicity test, renal cytotoxicity by MTT method; format: cell-based; details: African green monkey; MTT, 72 h treatment, 3 parallel wells; read-out: Renal cytotoxicity IC50, Vero cells
Where a SMILES comes first, the peptide text is derived from it. Bridges are numbered along the chain shown (N, C = ends). [ ]: non-standard residue; d: D form. The star is where a group is joined. X2 = CC[C@H](C)CCCCC(=O)*; Dab = NCC[C@H](N)C(=O)O
endpoint: IC50 at 72 h (µg/mL)

compound: CC[C@H](C)CCCCC(=O)N[C@@H](CCN)C(=O)N[C@H](C(=O)N[C@@H](CCN)C(=O)N[C@H]1CCNC(=O)[C@H]([C@@H](C)O)NC(=O)[C@H](CCN)NC(=O)[C@H](CCN)NC(=O)[C@H](CC(C)C)NC(=O)[C@@H](Cc2ccccc2)NC(=O)[C@H](CCN)NC1=O)[C@@H](C)O [Compound 42] (X2-[Dab]T[Dab][Dab][Dab][dF]L[Dab][Dab]T; lactam 4-C)
endpoint: IC50 at 72 h
recordedValue: 71.3

----------
The entries below are paired with their reported IC50 at 72 h.
assay: Nephrotoxicity test, renal cytotoxicity by MTT method; assay type: cell-based; settings: African green monkey
Where a SMILES comes first, the peptide text is derived from it. Bridges are numbered along the chain shown (N, C = ends). [ ]: non-standard residue; d: D form. The star is where a group is joined. Nonanoyl = CCCCCCCCC(=O)*; Dab = NCC[C@H](N)C(=O)O; X1 = CCCCCC(=O)CC(=O)*
endpoint: IC50 at 72 h

molecule: CCCCCC(=O)CC(=O)N[C@@H](CCN)C(=O)N[C@H](C(=O)N[C@@H](CCN)C(=O)N[C@H]1CCNC(=O)[C@H]([C@@H](C)O)NC(=O)[C@H](CCN)NC(=O)[C@H](CCN)NC(=O)[C@H](CC(C)C)NC(=O)[C@@H](Cc2ccccc2)NC(=O)[C@H](CCN)NC1=O)[C@@H](C)O [Compound 5] (X1-[Dab]T[Dab][Dab][Dab][dF]L[Dab][Dab]T; lactam 4-C)
recordedValue: 93.7 µg/mL

molecule: CCCCCCCCC(=O)N[C@@H](CCN)C(=O)N[C@H](C(=O)N[C@@H](CCN)C(=O)N[C@H]1CCNC(=O)[C@H]([C@@H](C)O)NC(=O)[C@H](CCN)NC(=O)[C@H](CCN)NC(=O)[C@H](CC(C)C)NC(=O)[C@@H](Cc2ccccc2)NC(=O)[C@H](CCN)NC1=O)[C@@H](C)O [Compound 46] (Nonanoyl-[Dab]T[Dab][Dab][Dab][dF]L[Dab][Dab]T; lactam 4-C)
recordedValue: 33.1 µg/mL

----------
system: Acinetobacter baumannii ATCC 19606; assay type: cell-based; details: ATCC 19606
Where a SMILES comes first, the peptide text is derived from it. Bridges are numbered along the chain shown (N, C = ends). [ ]: non-standard residue; d: D form. The star is where a group is joined. dPhe(4-NO2) = N[C@H](Cc1ccc([N+](=O)[O-])cc1)C(=O)O; dPhe(4-NH2) = Nc1ccc(C[C@@H](N)C(=O)O)cc1; Heptanoyl(6-Me) = CC(C)CCCCC(=O)*; X2 = CC[C@H](C)CCCCC(=O)*; Dab = NCC[C@H](N)C(=O)O
The entries below are paired with their reported MIC A. baumannii ATCC 19606.
endpoint: MIC A. baumannii ATCC 19606 (µg/mL)

compound: CC[C@H](C)CCCCC(=O)N[C@@H](CCN)C(=O)N[C@H](C(=O)N[C@@H](CCN)C(=O)N[C@H]1CCNC(=O)[C@H]([C@@H](C)O)NC(=O)[C@H](CCN)NC(=O)[C@H](CCN)NC(=O)[C@H](CC(C)C)NC(=O)[C@@H](Cc2ccc([N+](=O)[O-])cc2)NC(=O)[C@H](CCN)NC1=O)[C@@H](C)O [Compound 14] (X2-[Dab]T[Dab][Dab][Dab][dPhe(4-NO2)]L[Dab][Dab]T; lactam 4-C)
endpoint: MIC A. baumannii ATCC 19606
recordedValue: 1
--
compound: CC[C@H](C)CCCCC(=O)N[C@@H](CCN)C(=O)N[C@H](C(=O)N[C@@H](CCN)C(=O)N[C@H]1CCNC(=O)[C@H]([C@@H](C)O)NC(=O)[C@H](CCN)NC(=O)[C@H](CCN)NC(=O)[C@H](CC(C)C)NC(=O)[C@@H](Cc2ccc(OC)cc2)NC(=O)[C@H](CCN)NC1=O)[C@@H](C)O [Compound 24] (X2-[Dab]T[Dab][Dab][Dab][dY](Me)L[Dab][Dab]T; lactam 4-C)
endpoint: MIC A. baumannii ATCC 19606
recordedValue: 1
--
compound: CC[C@H](C)CCCCC(=O)N[C@@H](CCN)C(=O)N[C@H](C(=O)N[C@@H](CCN)C(=O)N[C@H]1CCNC(=O)[C@H]([C@@H](C)O)NC(=O)[C@H](CCN)NC(=O)[C@H](CCN)NC(=O)[C@H](CC(C)C)NC(=O)[C@@H](Cc2ccc(N)cc2)NC(=O)[C@H](CCN)NC1=O)[C@@H](C)O [Compound 11] (X2-[Dab]T[Dab][Dab][Dab][dPhe(4-NH2)]L[Dab][Dab]T; lactam 4-C)
endpoint: MIC A. baumannii ATCC 19606
recordedValue: 1
--
compound: CC[C@H](C)[C@@H]1NC(=O)[C@@H](CC(C)C)NC(=O)[C@H](CCN)NC(=O)[C@@H](NC(=O)[C@H](CCN)NC(=O)[C@@H](NC(=O)[C@H](CCN)NC(=O)CCCCC(C)C)[C@@H](C)O)CCNC(=O)[C@H]([C@@H](C)O)NC(=O)[C@H](CCN)NC(=O)[C@H](CCN)NC1=O [Compound 75] ({Heptanoyl(6-Me)}-[Dab]T[Dab][Dab][Dab][dL]I[Dab][Dab]T; lactam 4-C)
endpoint: MIC A. baumannii ATCC 19606
recordedValue: 1

----------
system: Klebsiella pneumoniae ATCC BAA-2146 (NDM-1); assay: Antibacterial activity, MIC by dish double dilution method; assay type: cell-based; settings: ATCC BAA-2146
Where a SMILES comes first, the peptide text is derived from it. Bridges are numbered along the chain shown (N, C = ends). [ ]: non-standard residue; d: D form. The star is where a group is joined. Heptanoyl(6-Me) = CC(C)CCCCC(=O)*; Heptanoyl = CCCCCCC(=O)*; Octanoyl = CCCCCCCC(=O)*; Dab = NCC[C@H](N)C(=O)O; X8 = CN(C)CCCCC(=O)*
The entries below are paired with their reported MIC K. pneumoniae ATCC BAA-2146 (NDM-1).

molecule: CC(C)CCCCC(=O)N[C@@H](CCN)C(=O)N[C@H](C(=O)N[C@@H](CCN)C(=O)N[C@H]1CCNC(=O)[C@H]([C@@H](C)O)NC(=O)[C@H](CCN)NC(=O)[C@H](CCN)NC(=O)[C@H](C(C)C)NC(=O)[C@@H](CC(C)C)NC(=O)[C@H](CCN)NC1=O)[C@@H](C)O [Compound 76] ({Heptanoyl(6-Me)}-[Dab]T[Dab][Dab][Dab][dL]V[Dab][Dab]T; lactam 4-C)
MIC K. pneumoniae ATCC BAA-2146 (NDM-1) [µg/mL]: 0.5
--
molecule: CCCCCCC(=O)N[C@@H](CCN)C(=O)N[C@H](C(=O)N[C@@H](CCN)C(=O)N[C@H]1CCNC(=O)[C@H]([C@@H](C)O)NC(=O)[C@H](CCN)NC(=O)[C@H](CCN)NC(=O)[C@H]([C@@H](C)CC)NC(=O)[C@@H](CC(C)C)NC(=O)[C@H](CCN)NC1=O)[C@@H](C)O [Compound 83] (Heptanoyl-[Dab]T[Dab][Dab][Dab][dL]I[Dab][Dab]T; lactam 4-C)
MIC K. pneumoniae ATCC BAA-2146 (NDM-1) [µg/mL]: 1
--
molecule: CCCCCCCC(=O)N[C@@H](CCN)C(=O)N[C@H](C(=O)N[C@@H](CO)C(=O)N[C@H]1CCNC(=O)[C@H]([C@@H](C)O)NC(=O)[C@H](CCN)NC(=O)[C@H](CCN)NC(=O)[C@H](CC(C)C)NC(=O)[C@@H](Cc2ccccc2)NC(=O)[C@H](CCN)NC1=O)[C@@H](C)O [Compound 54] (Octanoyl-[Dab]TS[Dab][Dab][dF]L[Dab][Dab]T; lactam 4-C)
MIC K. pneumoniae ATCC BAA-2146 (NDM-1) [µg/mL]: 1
--
molecule: CC(C)C[C@@H]1NC(=O)[C@@H](Cc2ccccc2)NC(=O)[C@H](CCN)NC(=O)[C@@H](NC(=O)[C@H](CCN)NC(=O)[C@@H](NC(=O)[C@H](CCN)NC(=O)CCCCN(C)C)[C@@H](C)O)CCNC(=O)[C@H]([C@@H](C)O)NC(=O)[C@H](CCN)NC(=O)[C@H](CCN)NC1=O [Compound 2] (X8-[Dab]T[Dab][Dab][Dab][dF]L[Dab][Dab]T; lactam 4-C)
MIC K. pneumoniae ATCC BAA-2146 (NDM-1) [µg/mL]: 128
--
molecule: CC(C)CCCCC(=O)N[C@@H](CCN)C(=O)N[C@H](C(=O)N[C@H](CO)C(=O)N[C@H]1CCNC(=O)[C@H]([C@@H](C)O)NC(=O)[C@H](CCN)NC(=O)[C@H](CCN)NC(=O)[C@H]([C@@H](C)O)NC(=O)[C@@H](Cc2ccccc2)NC(=O)[C@H](CCN)NC1=O)[C@@H](C)O [Compound 116] ({Heptanoyl(6-Me)}-[Dab]T[dS][Dab][Dab][dF]T[Dab][Dab]T; lactam 4-C)
MIC K. pneumoniae ATCC BAA-2146 (NDM-1) [µg/mL]: 1
